test: Drug excretion in Sprague-Dawley rat urine at 2 mg/kg, iv after 96 hrs; format: ADME, organism-based; set-up: dose 2 mg/kg, route intravenous; details: read-out: Activity
Measurement type: dose excreted at 96 h (%)
Give your result in % as a bare value.

Enquiry: Tell me its dose excreted at 96 h given Cc1cc(OCP(=O)(O)O)cc(C)c1Cc1ccc(O)c(C(C)C)c1 as the entry.
Return: 2

###

test: Volume of distribution in Sprague-Dawley rat at 3 mg/kg, iv; assay type: ADME, organism-based; design: dose 3 mg/kg, route intravenous; conditions: in vivo
Measurement type: Vd (L/kg)
Give your result in L/kg as a bare value.

Enquiry: Tell me its Vd given Cc1cc(OCP2(=O)OCC[C@@H](c3cccc(Cl)c3)O2)cc(C)c1Cc1ccc(O)c(C(C)C)c1 (stereo partly specified) as the entry.
Return: 14.8

###

assay: AUC (0 to 24 hrs) in Sprague-Dawley rat at 5 mg/kg, iv; type: ADME, organism-based; parameters: time < 24 hr, dose 5 mg/kg, route intravenous; conditions: plasma
Measurement type: AUC(0-t) at 24 h (ng·h/mL)
Give your result in ng·h/mL as a bare value.

Enquiry: Tell me its AUC(0-t) at 24 h given Cc1cc(OCP(=O)(O)O)cc(C)c1Cc1ccc(O)c(C(C)C)c1 as the entry.
Return: 16600

###

experiment: Drug excretion in bile duct-canulated Sprague-Dawley rat bile at 10 mg/kg, iv; format: ADME, organism-based; set-up: dose 10 mg/kg, route intravenous; details: read-out: Activity
Measurement type: dose excreted (%)
Give your result in % as a bare value.

Enquiry: Tell me its dose excreted given Cc1cc(OCP(=O)(O)O)cc(C)c1Cc1ccc(O)c(C(C)C)c1 as the entry.
Return: 50

###

experiment: Volume of distribution in Sprague-Dawley rat at 5 mg/kg, iv; assay type: ADME, organism-based; parameters: dose 5 mg/kg, route intravenous; settings: in vivo
Measurement type: Vd (L/kg)
Give your result in L/kg as a bare value.

Enquiry: Tell me its Vd given Cc1cc(OCP(=O)(O)O)cc(C)c1Cc1ccc(O)c(C(C)C)c1 [MB07344] as the entry.
Return: 0.39
